Read-out: CD69, CD69 (gene 969)
Assay name: BSK_SAg_CD69: BioMAP Diversity Plus: SAg Assay for CD69 Biomarker Activity (AID 2283089)
Test context: primary human HUVEC with PBMC; actives raise or lower the signal
Active and inactive are the calls of the source. Rule for the calls: active = hit-call score of the fitted dose curve at least 0.9, where 1 is the maximum; inactive = score below 0.9.
Log the outcome using a class from class 1 (active), class 0 (inactive)

*Q* Tell me the assay call for `Nc1nc2ncc(CNc3ccc(C(=O)N[C@@H](CCC(=O)O)C(=O)O)cc3)nc2c(=O)[nH]1` please.
*A* class 0

*Q* Tell me the assay call for `CC(C)CCCCCCCOC(=O)CCCCC(=O)OCCCCCCCC(C)C` please.
*A* class 0

*Q* Tell me the assay call for `CC(=O)OC[C@H]1O[C@@](COC(C)=O)(O[C@H]2O[C@H](COC(C)=O)[C@@H](OC(C)=O)[C@H](OC(C)=O)[C@H]2OC(C)=O)[C@@H](OC(C)=O)[C@@H]1OC(C)=O` please.
*A* class 0

*Q* Tell me the assay call for `COc1cccc(-c2ccc(/C=C\CN3CCCCCC3)cc2Cl)c1` please.
*A* class 1

====

Assay name: APR_HepG2_MitoMembPot_72hr: Apredica 72-hour HepG2 Assay for Mitochondrial Membrane Potential (AID 2282917)
Test context: imaging, actives raise or lower the signal
Calls of active or inactive are those of the source. How the source made its calls: active means hit-call score of the fitted dose curve at least 0.9, where 1 is the maximum; inactive means score below 0.9.
Log the outcome using a class from label 1 = active, label 0 = inactive

*Q* Tell me the assay call for CNS(=O)(=O)c1cc(C(=O)N2CCC(CCN3C4CCC3CC(n3c(C)nc5ccccc53)C4)(c3cccc(F)c3)CC2)c(Cl)cc1F (stereo not given) please.
*A* label 0

*Q* Tell me the assay call for `CCOc1cccc(-n2cc(C(=O)N3CCN(c4cc(C(=O)O)c5ccccc5c4)CC3)nc2-c2ccc(C)cc2)c1` please.
*A* label 0

*Q* Tell me the assay call for `CCn1nc(Cc2ccccc2)cc1C1CCN(C[C@H]2C[C@H](N(C)[C@@H](C(=O)O)C(C)C)C[C@@H]2c2cccc(F)c2)CC1` please.
*A* label 0

*Q* Tell me the assay call for `COCCOc1cc2cc(C(=O)NC3CCN(C(C)C)CC3)n(CC(=O)Nc3ccc(Cl)cn3)c2cn1` please.
*A* label 0

*Q* Tell me the assay call for `Cc1c(-c2cccnc2)c2ccccc2n1CCCCC(=O)O` please.
*A* label 0

*Q* Tell me the assay call for `O=C(OC[C@H]1O[C@@H](OC(=O)c2cc(O)c(O)c(OC(=O)c3cc(O)c(O)c(O)c3)c2)[C@H](OC(=O)c2cc(O)c(O)c(OC(=O)c3cc(O)c(O)c(O)c3)c2)[C@@H](OC(=O)c2cc(O)c(O)c(OC(=O)c3cc(O)c(O)c(O)c3)c2)[C@@H]1OC(=O)c1cc(O)c(O)c(OC(=O)c2cc(O)c(O)c(O)c2)c1)c1cc(O)c(O)c(OC(=O)c2cc(O)c(O)c(O)c2)c1` please.
*A* label 1

*Q* Tell me the assay call for `CC(C)=CCC/C(C)=C\CO` please.
*A* label 0

*Q* Tell me the assay call for `CCCCCCc1ccc(O)cc1O` please.
*A* label 0

*Q* Tell me the assay call for `CCCC(=O)OCC` please.
*A* label 0

*Q* Tell me the assay call for `Cn1c(=O)c2c(ncn2C)n(C)c1=O` please.
*A* label 0

*Q* Tell me the assay call for `CCCCCCCCCCCCc1ccccc1` please.
*A* label 0

*Q* Tell me the assay call for CCCCC(CC)COC(=O)c1ccc(C(=O)OCC(CC)CCCC)cc1 (stereo not given) please.
*A* label 0

*Q* Tell me the assay call for O=C(O)CC(O)C(=O)O (stereo not given) please.
*A* label 0

*Q* Tell me the assay call for `O=P(OC(CCl)CCl)(OC(CCl)CCl)OC(CCl)CCl` please.
*A* label 1

*Q* Tell me the assay call for `C=CC(=C)CCC=C(C)C` please.
*A* label 0

*Q* Tell me the assay call for `On1ccccc1=S` please.
*A* label 0

*Q* Tell me the assay call for O=C1OC(=O)C2C3C=CC(C3)C12 (stereo not given) please.
*A* label 0

*Q* Tell me the assay call for `C[C@](N)(Cc1ccc(O)c(O)c1)C(=O)O` please.
*A* label 1

*Q* Tell me the assay call for COc1ccc(-n2nc(C(F)F)cc2-c2ccc(S(C)=O)cc2)cc1 (stereo not given) please.
*A* label 0

*Q* Tell me the assay call for `CC[C@H](C)C(=O)O[C@H]1C[C@@H](C)C=C2C=C[C@H](C)[C@H](CC[C@@H]3C[C@@H](O)CC(=O)O3)[C@H]21` please.
*A* label 0
